Could you please report measured % of non-killer animals for the items listed next?
- protocol: Inhibition of aggression in isolated and bulbectomized rats
- Assay type: in vivo
- condition_notes: i.p., 25 mg.kg^-1
Give bare numbers, in %.

Here is how some compounds turned out for % of non-killer animals.
>  <structure_smiles_string>
Cl.Cl.O=C1CN(Cc2ccccc2)CC(=O)N1CCN1CCN(c2cccc(C(F)(F)F)c2)CC1

>  <output_unit>
%

>  <observed_value>
66

$$$$
>  <structure_smiles_string>
COc1ccccc1CN1CC(=O)N(CCCN2CCN(c3cccc(C(F)(F)F)c3)CC2)C(=O)C1.Cl.Cl

>  <output_unit>
%

>  <observed_value>
64

$$$$
>  <structure_smiles_string>
Cl.Cl.Cl.O=C1CN(Cc2ccccn2)CC(=O)N1CCCN1CCN(c2ccc(F)cc2)CC1

>  <output_unit>
%

>  <observed_value>
67

$$$$

Value sought for every listed compound: % of non-killer animals.
1. O=C1CN(Cc2ccccc2)CC(=O)N1CCCN1CCN(c2ccc(F)cc2)CC1
2. O=C1CN(Cc2ccccc2F)CC(=O)N1CCCN1CCN(c2cccc(C(F)(F)F)c2)CC1

1: 60; 2: 45
